B1: library; a variant is named by its letters at N, in order (parent)
chain: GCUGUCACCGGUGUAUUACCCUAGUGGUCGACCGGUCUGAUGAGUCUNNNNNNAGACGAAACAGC

Variants of: B1
measurement protocol: FACS-Seq fitted mean relative fluorescence mCherry/BFP without ligand (log10 relative fluorescence); ligand: hypoxanthine (xanthine aptamer); higher = higher reporter protein expression
condition details: HEK293T, ligand present: no
readout type: FACS-Seq fitted mean (log10)
One number for each entry.

> print(dat)
   mutation.descriptor  test.value
1               CGGAAU      0.0719
2               UGGACG       0.639
3               GACGAA       0.408

Hi! Can you tell me FACS-Seq fitted mean (log10) for each of these variants?
1. CCGGAC
2. CAGUAG
3. UAUAUA
4. UCCCCA

Output line:
[0.196, 0.475, 0.814, 0.858]

Hi! Can you tell me FACS-Seq fitted mean (log10) for each of these variants?
1. GAACUA
2. GAAAGG

Output line:
0.557
0.141
